Biological target: Beta-adrenergic receptor kinase 1 (Homo sapiens, UniProt P25098)
Sequence (P25098 whole entry): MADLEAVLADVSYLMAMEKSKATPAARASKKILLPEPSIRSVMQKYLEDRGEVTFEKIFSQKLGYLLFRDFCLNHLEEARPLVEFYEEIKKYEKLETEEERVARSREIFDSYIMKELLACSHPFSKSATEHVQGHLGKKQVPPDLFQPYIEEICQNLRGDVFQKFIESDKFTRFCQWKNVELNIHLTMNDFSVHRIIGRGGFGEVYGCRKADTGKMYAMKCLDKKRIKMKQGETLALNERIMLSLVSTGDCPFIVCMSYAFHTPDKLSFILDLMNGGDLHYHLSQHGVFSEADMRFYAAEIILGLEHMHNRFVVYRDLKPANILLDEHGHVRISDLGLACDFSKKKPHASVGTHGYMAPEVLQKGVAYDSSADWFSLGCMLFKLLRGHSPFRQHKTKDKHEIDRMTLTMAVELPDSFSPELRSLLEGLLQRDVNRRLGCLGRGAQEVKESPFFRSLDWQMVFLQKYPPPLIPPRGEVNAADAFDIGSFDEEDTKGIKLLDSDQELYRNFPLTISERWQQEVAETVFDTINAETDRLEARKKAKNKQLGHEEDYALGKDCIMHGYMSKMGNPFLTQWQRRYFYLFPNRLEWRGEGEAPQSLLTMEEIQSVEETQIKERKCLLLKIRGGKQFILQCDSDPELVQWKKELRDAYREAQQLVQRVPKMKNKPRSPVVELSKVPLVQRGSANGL
Test: aptamer displacement from bead-bound GRK2 – biochemical, cherry pick 1, bead flow cytometry, dose response (AID 504500)
quantity: EC50

Give its EC50 value. Item: `C=c1[nH]n(-c2cccc(C(=O)O)c2)c(=O)c1=CC=Cc1ccco1`
14.8 µM
